molecular target: hERG channel (Homo sapiens, UniProt Q12809); construct: expressed in transfected cells; host or cells: CHO (hERG-CHO), under Geneticin selection; assay: hERG channel inhibition, automated patch clamp (IonWorks HT, hERG-CHO); assay type: cell-based; settings: CHO cells expressing hERG, 10 μM compound, 600 s incubation, read-out: hERG Channel Inhibition % (at 10 μM), vehicle-subtracted values
Sequence (Q12809 whole entry): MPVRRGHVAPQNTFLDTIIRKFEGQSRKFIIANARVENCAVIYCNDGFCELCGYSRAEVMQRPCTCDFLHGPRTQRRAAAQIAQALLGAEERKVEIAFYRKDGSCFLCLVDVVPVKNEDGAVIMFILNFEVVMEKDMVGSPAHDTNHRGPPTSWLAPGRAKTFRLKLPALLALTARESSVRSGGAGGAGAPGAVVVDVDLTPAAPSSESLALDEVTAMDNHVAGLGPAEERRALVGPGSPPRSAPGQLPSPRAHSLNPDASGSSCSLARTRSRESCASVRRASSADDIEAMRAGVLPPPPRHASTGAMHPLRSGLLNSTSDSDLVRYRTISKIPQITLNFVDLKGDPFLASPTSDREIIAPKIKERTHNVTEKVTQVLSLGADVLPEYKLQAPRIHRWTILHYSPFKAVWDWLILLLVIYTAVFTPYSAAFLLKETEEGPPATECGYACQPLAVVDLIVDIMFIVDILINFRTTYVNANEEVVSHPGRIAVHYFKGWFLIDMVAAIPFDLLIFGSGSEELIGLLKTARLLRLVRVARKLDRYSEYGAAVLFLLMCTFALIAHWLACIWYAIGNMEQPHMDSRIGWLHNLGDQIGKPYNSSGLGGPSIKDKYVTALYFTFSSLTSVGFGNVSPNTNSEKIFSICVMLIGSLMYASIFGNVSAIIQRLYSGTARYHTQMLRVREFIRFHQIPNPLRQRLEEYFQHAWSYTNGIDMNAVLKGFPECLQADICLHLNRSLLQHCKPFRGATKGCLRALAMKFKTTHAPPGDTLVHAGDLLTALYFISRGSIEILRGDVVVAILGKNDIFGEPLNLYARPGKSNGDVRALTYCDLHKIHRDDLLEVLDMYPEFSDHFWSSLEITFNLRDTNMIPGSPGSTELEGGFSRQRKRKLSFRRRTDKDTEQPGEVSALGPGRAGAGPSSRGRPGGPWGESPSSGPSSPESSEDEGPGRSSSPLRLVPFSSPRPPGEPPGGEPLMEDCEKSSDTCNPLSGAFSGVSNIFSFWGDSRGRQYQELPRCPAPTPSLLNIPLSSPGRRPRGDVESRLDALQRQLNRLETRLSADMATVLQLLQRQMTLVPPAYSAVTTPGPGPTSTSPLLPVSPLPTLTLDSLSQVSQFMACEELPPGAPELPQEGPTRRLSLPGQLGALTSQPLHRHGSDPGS
Measured inhibition at 600 s, 10 µM of individual entries

Example entries begin here.
{"columns": ["Structure Notation", "inhibition at 600 s, 10 µM"],
 "data": [
  ["COc1ccc2c(C(=O)C(=O)Nc3ccnc(OC)c3)c(C)n(Cc3ccc(Cl)cc3)c2c1", "< 25%"],
  ["COc1cc(NC(=O)C(=O)c2c(C)n(Cc3ccc(Cl)cc3)c3ccc(C(C)=O)cc23)ccn1", "25 to 50%"],
  ["COc1cc(NC(=O)C(=O)c2c(C)n(Cc3ccc(Cl)cc3)c3cccc(OC)c23)ccn1", "< 25%"],
  ["COc1cc(NC(=O)C(=O)c2c(C)n(Cc3ccc(Cl)cc3)c3ccc(O)cc23)ccn1", "< 25%"],
  ["COc1ccc2c(c1)c(C(=O)C(=O)Nc1ccnc(OC)n1)c(C)n2Cc1ccc(Cl)cc1", "< 25%"]
]}

QUERY: What inhibition at 600 s, 10 µM appears in the records for this compound with hERG channel (Homo sapiens, UniProt Q12809)? COc1cc(NC(=O)C(=O)c2c(C)n(Cc3ccc(Cl)cc3)c3ccc(N)cc23)ccn1
RESULT: < 25%

QUERY: Also check Cc1c(C(=O)C(=O)Nc2cccc(Cl)c2)c2cc(O)ccc2n1Cc1ccc(Cl)cc1
RESULT: < 25%

QUERY: Also check COc1ccc2c(c1)c(C(=O)C(=O)Nc1ccnc(OC)c1)c(C)n2Cc1ncc(Cl)cc1F
RESULT: < 25%

QUERY: Also check COc1ccc2c(c1)c(C(=O)C(=O)Nc1ccnc(OC)c1)c(C)n2Cc1ncc(F)cc1F
RESULT: < 25%

QUERY: Also check COc1cc(NC(=O)C(=O)c2c(C)n(Cc3ccc(Cl)cc3)c3cc(OC)c(OC)cc23)ccn1
RESULT: < 25%

QUERY: Also check COc1ccc2c(c1)c(C(=O)C(=O)Nc1ccnc(OC)c1)c(C)n2Cc1ccc(C)cn1
RESULT: < 25%

QUERY: Also check COc1ccc2c(c1)c(C(=O)C(=O)Nc1ccnc(OC)c1)c(C)n2Cc1cccnc1
RESULT: 25 to 50%

QUERY: Also check COc1ccc2c(c1)c(C(=O)C(=O)Nc1ccnc(OC)c1F)c(C)n2Cc1ccc(Cl)cc1
RESULT: < 25%
